# Tested on: LoVo-Dox
# Test Name: SRB colorimetric assay of cell growth and viability, LoVo-Dox
# Format: cell-based, human
# Test Context: LOVO-DOX; 48 hours exposure; read-out: LC50 LOVO-DOX
Where a SMILES comes first, the peptide text is derived from it. Bridges are numbered along the chain shown (N, C = ends). [ ]: non-standard residue; d: D form. The star is where a group is joined. d(aIle) = CC[C@H](C)[C@@H](N)C(=O)O; d(aThr) = C[C@@H](O)[C@@H](N)C(=O)O; Hexanoyl(5-Me) = CC(C)CCCC(=O)*; Phg = N[C@H](C(=O)O)c1ccccc1; Orn = NCCC[C@H](N)C(=O)O; Dhb = C/C=C(\N)C(=O)O
Mark criterion met only when CC50 stays strictly below 2 µM. Values equal to the cut-off are criterion not met.

INSERT INTO measurements (compound, class_name) VALUES
  ('C/C=C1\NC(=O)[C@H](Cc2ccccc2)NC(=O)[C@@H](C(C)C)NC(=O)[C@@H]([C@@H](C)CC)NC(=O)[C@H](NC(=O)[C@H](NC(=O)[C@H](CCCN)NC(=O)[C@H]2CCCN2C(=O)[C@H](NC(=O)[C@@H](NC(=O)[C@@H]2CCCN2C(=O)[C@H](NC(=O)CCCC(C)C)C(C)C)C(C)C)C(C)C)[C@@H](C)CC)[C@@H](C)OC(=O)[C@H](C(C)C)NC1=O [Compound 117, [Pro^12]-KF] ({Hexanoyl(5-Me)}-[dV]PV[dV][dP][Orn][d(aIle)][d(aThr)][d(aIle)][dV]F[Dhb]V; ester 8-C)', 'criterion not met'),
  ('C/C=C1\NC(=O)[C@H](Cc2cccc(Cl)c2)NC(=O)[C@@H](C(C)C)NC(=O)[C@@H]([C@@H](C)CC)NC(=O)[C@H](NC(=O)[C@H](NC(=O)[C@H](CCCN)NC(=O)[C@H]2CCCN2C(=O)[C@H](NC(=O)[C@@H](NC(=O)[C@@H](NC(=O)[C@H](NC(=O)CCCC(C)C)C(C)C)[C@@H](C)O)C(C)C)C(C)C)[C@@H](C)CC)[C@@H](C)OC(=O)[C@H](C(C)C)NC1=O [Compound 82, [Phe(3-Cl)^3]-KF]', 'criterion met'),
  ('C/C=C1\NC(=O)[C@H](Cc2ccccc2)NC(=O)[C@@H](C(C)C)NC(=O)[C@@H]([C@@H](C)CC)NC(=O)[C@H](NC(=O)[C@H](NC(=O)[C@H](CCCN)NC(=O)[C@H]2CCCCN2C(=O)[C@H](NC(=O)[C@@H](NC(=O)[C@@H](NC(=O)[C@H](NC(=O)CC[C@@H](C)CC)C(C)C)[C@@H](C)O)C(C)C)C(C)C)[C@@H](C)CC)[C@@H](C)OC(=O)[C@H](C(C)C)NC1=O [Compound 60, [D-Pip^9, (4S)-MeHex^14]-KF]', 'criterion not met'),
  ('C/C=C1\NC(=O)[C@H](Cc2ccccc2Cl)NC(=O)[C@@H](C(C)C)NC(=O)[C@@H]([C@@H](C)CC)NC(=O)[C@H](NC(=O)[C@H](NC(=O)[C@H](CCCN)NC(=O)[C@H]2CCCN2C(=O)[C@H](NC(=O)[C@@H](NC(=O)[C@@H](NC(=O)[C@H](NC(=O)CCCC(C)C)C(C)C)[C@@H](C)O)C(C)C)C(C)C)[C@@H](C)CC)[C@@H](C)OC(=O)[C@H](C(C)C)NC1=O [Compound 81, [Phe(2-Cl)^3]-KF]', 'criterion met'),
  ('C/C=C1\NC(=O)[C@H](Cc2ccccc2)NC(=O)[C@@H](C(C)C)NC(=O)[C@@H]([C@@H](C)CC)NC(=O)[C@H](NC(=O)[C@H](NC(=O)[C@H](CCCN)NC(=O)[C@H]2CCCN2C(=O)[C@H](NC(=O)[C@@H](NC(=O)[C@H](Cc2ccccc2)NC(=O)[C@H](NC(=O)CCCC(C)C)C(C)C)C(C)C)C(C)C)[C@@H](C)CC)[C@@H](C)OC(=O)[C@H](C(C)C)NC1=O [Compound 114, [Phe^12]-KF] ({Hexanoyl(5-Me)}-[dV]FV[dV][dP][Orn][d(aIle)][d(aThr)][d(aIle)][dV]F[Dhb]V; ester 8-C)', 'criterion not met'),
  ('C/C=C1\NC(=O)[C@H](c2ccccc2)NC(=O)[C@@H](C(C)C)NC(=O)[C@@H]([C@@H](C)CC)NC(=O)[C@H](NC(=O)[C@H](NC(=O)[C@H](CCCN)NC(=O)[C@H]2CCCN2C(=O)[C@H](NC(=O)[C@@H](NC(=O)[C@@H](NC(=O)[C@H](NC(=O)CCCC(C)C)C(C)C)[C@@H](C)O)C(C)C)C(C)C)[C@@H](C)CC)[C@@H](C)OC(=O)[C@H](C(C)C)NC1=O [Compound 87, [Phg^3]-KF] ({Hexanoyl(5-Me)}-[dV]TV[dV][dP][Orn][d(aIle)][d(aThr)][d(aIle)][dV][Phg][Dhb]V; ester 8-C)', 'criterion met'),
  ('C/C=C1\NC(=O)[C@H](Cc2ccccc2)NC(=O)[C@@H](C(C)C)NC(=O)[C@@H]([C@@H](C)CC)NC(=O)[C@H](NC(=O)[C@H](NC(=O)[C@H](CCCN)NC(=O)[C@H]2CCCN2C(=O)[C@H](NC(=O)[C@@H](NC(=O)[C@H](CCCN)NC(=O)[C@H](NC(=O)CCCC(C)C)C(C)C)C(C)C)C(C)C)[C@@H](C)CC)[C@@H](C)OC(=O)[C@H](C(C)C)NC1=O [Compound 116, [Orn^12]-KF] ({Hexanoyl(5-Me)}-[dV][Orn]V[dV][dP][Orn][d(aIle)][d(aThr)][d(aIle)][dV]F[Dhb]V; ester 8-C)', 'criterion not met');
